Source: patent US20030186281A1

test system: tet operator sequence; assay: β-galactosidase activity of a tetracycline-regulated promoter in transformed E. coli with revTetR, in the presence and absence of anhydrotetracycline (atc); format: cell-based, Escherichia coli; details: RevTetR isolate cultured in the absence of anhydrotetracycline (ATC)
Each entry below lists one item and its recorded β-Galactosidase Activity, Cultured Without ATC value.
measuredMetric: β-Galactosidase Activity, Cultured Without ATC

| molecule | result |
| --- | --- |
| TetRrevAtc4-9: revTetR(BD) L52M A56P V57L E58V L60L H188Y (protein, Modified tetracycline repressor, revTetR(BD) L52M A56P V57L E58V L60L H188Y) MSRLDKSKVINSALELLNEVGIEGLTTRKLAQKLGVEQPTLYWHVKNKRALMDAMPLVILARHHDYSLPAAGESWQSFLRNNAMSFRRALLRYRDGAKVHLGTRPDEKQYDTVETQLRFMTENGFSLRDGLYAISAVSHFTLGAVLEQQEHTAALTDRPAAPDENLPPLLREALQIMDSDDGEQAFLYGLESLIRGFEVQLTALLQIV | 97.1039 |
| TetRrevAF3/6: revTetR(BD) E23K D95H L101H (protein, Modified tetracycline repressor, revTetR(BD) E23K D95H L101H) MSRLDKSKVINSALELLNEVGIKGLTTRKLAQKLGVEQPTLYWHVKNKRALLDALAVEILARHHDYSLPAAGESWQSFLRNNAMSFRRALLRYRHGAKVHHGTRPDEKQYDTVETQLRFMTENGFSLRDGLYAISAVSHFTLGAVLEQQEHTAALTDRPAAPDENLPPLLREALQIMDSDDGEQAFLHGLESLIRGFEVQLTALLQIV | 77.2272 |
